Please go through the items and note down their NF-kB SEAP reporter activity.
test system: RAW-Dual; assay: NF-kB SEAP reporter activity, fold change vs agonist alone; higher = enhanced NF-kB activity; details: library stock concentration (final ~1000-fold dilution): 10 mM; cytotoxicity flag (confluency mask): not cytotoxic; agonist: MPLA (TLR4) […]
In all, about 2,900 compounds were measured (“NF-kB SEAP reporter activity, fold change vs agonist alone”: median about 0.99, highest 2% from about 2.6 on). Shown is part of a subset that was picked to be rich in the highest values.
Numbers only.

{"COMPOUND": "CN(C)C(=O)CCSC(SCCC(=O)O)c1cccc(C=Cc2ccc3ccc(Cl)cc3n2)c1 (centres undefined)", "NF-kB SEAP reporter activity": 1.05}

Return reported NF-kB SEAP reporter activity values for all items listed beneath this line.
1. CC(C)(O)CNc1ncc(-c2ccnc(Nc3ccnc(Cl)c3)n2)c(CC2CC2)n1
2. COCc1ccc(-c2ccc3ncc(C(N)=O)c(NC(C)C4CCOCC4)c3c2)cn1 (centres undefined)
3. CC(C)NCC(O)COc1ccc(COCCOC(C)C)cc1.O=C(O)/C=C/C(=O)O (centres undefined)
4. C=C1C(CO)C(O)CC1n1cnc2c(=O)nc(N)[nH]c21 (centres undefined)

Result:
1. 2.07
2. 1.35
3. 1.02
4. 1.07

// for each compound below, give its NF-kB SEAP reporter activity
1. CC(Oc1ccc2c(c1)OCCn1cc(-c3ncnn3C(C)C)nc1-2)C(N)=O (centres undefined)
2. COc1ccc(C(NC(=O)c2cnc(-c3cccnn3)nc2O)c2ccc(OC)cc2)cc1
3. Nc1ccccc1NC(=O)c1ccc(CNC(=O)OCc2cccnc2)cc1
4. CC(C)(O)CNc1ncc(-c2ccnc(Nc3ccncc3)n2)c(CC2CC2)n1
5. Cc1cc2ncc(C(=O)NCC(C)(C)NCC(=O)N3CCCC3C#N)cn2n1 (centres undefined)
6. COc1ccc(CCNCC(O)COc2cccc(C)c2)cc1OC.Cl (centres undefined)
7. Nc1nc(F)nc2c1ncn2C1OC(CO)C(O)C1O (centres undefined)

Result:
[1.4, 1.03, 1.06, 2.18, 1.04, 1.06, 0.844]

Give me NF-kB SEAP reporter activity for each of these compounds, listed below.
1. O=c1[nH]c(=S)[nH]c2nc(-c3ccccc3)c(-c3ccccc3)nc12
2. COc1ccc(S(=O)(=O)N(C(C)=O)c2ccccc2/C=C/c2cc[n+]([O-])cc2)cc1
3. CCCS(=O)c1ccc2nc(NC(=O)OC)[nH]c2c1 (centres undefined)

Result:
1. 0.977
2. 1.61
3. 0.808

For the 3 compounds below, give their NF-kB SEAP reporter activity values.
1. N#CCC1(n2cc(-c3ncnc4[nH]ccc34)cn2)CN(C2CCN(C(=O)c3ccnc(C(F)(F)F)c3F)CC2)C1
2. COc1cc2ncnc(Nc3ccc(F)c(Cl)c3)c2cc1OCCCN1CCOCC1.Cl
3. Oc1ccc(-c2nc(-c3ccc(F)cc3)c(-c3ccncc3)[nH]2)cc1

Result:
0.922
1.29
1.84

----------
tested on: RAW-Dual; test: NF-kB SEAP reporter activity, fold change vs agonist alone; cytotoxicity flag (confluency mask): not cytotoxic; higher = enhanced NF-kB activity; conditions: agonist: LPS (TLR4) 0.1 ug/mL
The full ranking holds about 2,900 compounds; the median of “NF-kB SEAP reporter activity, fold change vs agonist alone” is about 0.99, and the highest 2% start at about 2.6. Only a selection was taken, and the highest values are over-represented in it overall.
MEASUREMENT_TYPE: NF-kB SEAP reporter activity
Answers are plain numbers.

{"COMPOUND": "CCNC(=O)Nc1ccc(-c2nc3c(c(N4CCOCC4C)n2)CCN(C2COC2)C3)cc1 (stereo not drawn) (library stock concentration (final ~1000-fold dilution): 10 mM)", "NF-kB SEAP reporter activity": 0.974}
{"COMPOUND": "CC(=O)ON=C1C(c2c(O)[nH]c3cc(Br)ccc23)=Nc2ccccc21 (library stock concentration (final ~1000-fold dilution): 10 mM)", "NF-kB SEAP reporter activity": 3.28}

Q: What NF-kB SEAP reporter activity value was documented for this compound, CC(C)(NS(=O)(=O)c1ccc2c(Cl)cnc(NC(=N)N)c2c1)C(=O)O.Cl (library stock concentration (final ~1000-fold dilution): 10 mM) ?
Result: 1.1
